Target: S100A4 (Homo sapiens)
Construct: made in house; host or cells: Escherichia coli BL21(DE3)
Sequence (P26447 whole entry): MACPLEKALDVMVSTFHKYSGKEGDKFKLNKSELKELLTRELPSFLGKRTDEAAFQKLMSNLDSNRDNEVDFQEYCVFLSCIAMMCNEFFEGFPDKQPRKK
Experiment: Pull-down assay with immobilized protein and LSM libraries
Format: binding
Conditions: H14 library; 1:1 binding assumed; read-out: Surface mapping KD (apparent)
pKd: −log10 of the molar value.
I would appreciate it if you labelled entries true (1) when pKd is 4 or higher, otherwise false (0).

>>> assigned_label("C[C@@H](CC(=O)N[C@H]1CCCC[C@@H]1C(=O)N[C@H]1CCCC[C@@H]1C(=O)N[C@H](CC(=O)N[C@H]1CCCC[C@@H]1C(N)=O)Cc1ccc(O)cc1)NC(=O)[C@H]1CCCC[C@@H]1N")
"false (0)"
>>> assigned_label("NCCCC[C@@H](CC(=O)N[C@H]1CCCC[C@@H]1C(N)=O)NC(=O)[C@H]1CCCC[C@@H]1NC(=O)[C@H]1CCCC[C@@H]1NC(=O)C[C@H](Cc1c[nH]c2ccccc12)NC(=O)[C@H]1CCCC[C@@H]1N")
"false (0)"
>>> assigned_label("NC(=O)[C@H]1CCCC[C@@H]1NC(=O)C[C@H](CO)NC(=O)[C@H]1CCCC[C@@H]1NC(=O)[C@H]1CCCC[C@@H]1NC(=O)C[C@H](Cc1ccc(O)cc1)NC(=O)[C@H]1CCCC[C@@H]1N")
"false (0)"
>>> assigned_label("CC(C)C[C@@H](CC(=O)N[C@H]1CCCC[C@@H]1C(=O)N[C@H]1CCCC[C@@H]1C(=O)N[C@@H](C)CC(=O)N[C@H]1CCCC[C@@H]1C(N)=O)NC(=O)[C@H]1CCCC[C@@H]1N")
"true (1)"
>>> assigned_label("NC(=O)[C@H]1CCCC[C@@H]1NC(=O)C[C@H](Cc1ccccc1)NC(=O)[C@H]1CCCC[C@@H]1NC(=O)[C@H]1CCCC[C@@H]1NC(=O)C[C@H](Cc1ccc(O)cc1)NC(=O)[C@H]1CCCC[C@@H]1N")
"true (1)"
